Molecular target: CDK1/cyclin B
Assay: CDK1/cyclin B kinase assay (histone H1, 15 μM ATP)
Details: 15 μM ATP, Table 1
pIC50: −log10 of the molar value.

compound: COc1ccc(-c2[nH]c3nccnc3c2C)cc1 [27 (RP95)]
pIC50: 6.52

compound: Br.Oc1ccc(-c2cc3nccnc3[nH]2)cc1 [15 (RP26), hydrobromide]
pIC50: 5.92

compound: COc1ccccc1-c1cc2nccnc2[nH]1 [10 (RP9)]
pIC50: 4.70

compound: Br.Oc1ccccc1-c1cc2nccnc2[nH]1 [11 (RP109), hydrobromide]
pIC50: 5.60

* * *

Molecular target: GSK-3α/β
Experiment: GSK-3 kinase assay (GS-1 peptide, 15 μM ATP)
Type: biochemical, porcine
Conditions: 15 μM ATP, Table 1; read-out: IC50 GSK-3
measured_metric: log10(IC50) (log10 of the value in µM)

compound: COc1ccc(-c2cc3nccnc3[nH]2)cc1 [14 (RP11)]
system_under_test: GSK-3α/β
log10(IC50): 0.04

compound: Cc1c(-c2ccc(Cl)cc2)n(C2CCCCC2)c2nccnc12 [47 (RP99)]
system_under_test: GSK-3α/β
log10(IC50): 0.90

compound: c1ccc(Cc2c(-c3ccccc3)[nH]c3nccnc23)cc1 [44 (RP92)]
system_under_test: GSK-3α/β
log10(IC50): 0.00

compound: COc1ccccc1-c1cc2nccnc2[nH]1 [10 (RP9)]
system_under_test: GSK-3α/β
log10(IC50): 0.52

compound: COc1ccc(-c2c(C)c3nccnc3n2C2CCCCC2)cc1 [46 (RP98)]
system_under_test: GSK-3α/β
log10(IC50): 0.83

compound: Br.Cc1c(-c2ccc(O)cc2)[nH]c2nccnc12 [28 (RP96), hydrobromide]
system_under_test: GSK-3α/β
log10(IC50): -0.28

compound: CCCc1c(-c2ccc(OC)cc2)[nH]c2nccnc12 [32 (RP127)]
system_under_test: GSK-3α/β
log10(IC50): -0.40
